# maps each entry to its FACS signal at 40 nM
target: human Claudin-6 (CLDN6) (human) (UniProt P56747); assay: FACS, limiting dilution, OV90 cells

binder	FACS signal at 40 nM
AB S6 (antibody, V domains shown) VH: EVQLLESGGGLVQPGGSMRLSCAASGFTFSNYWMNWVRQAPGKGLEWLAQIRLKSDNYVTHYADSVKGRFTISRDDSKRTVYLQMNSLRAEDTGTYYCNDGPPSGSWGQGTLLTVSS VL: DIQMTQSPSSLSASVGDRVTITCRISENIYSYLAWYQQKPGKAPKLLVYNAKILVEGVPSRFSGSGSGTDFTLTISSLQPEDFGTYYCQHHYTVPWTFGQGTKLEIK	12600
AB S1 (antibody, V domains shown) VH: EVQLLESGGGLVQPGGSMRLSCAASGFTFSNYWMNWVRQAPGKGLEWIAQIRLKSDNYATHYTDSVKGRFTISRDDSKRTVYLQMNSLRAEDTGTYYCSDGPPSGSWGQGTLLTVSS VL: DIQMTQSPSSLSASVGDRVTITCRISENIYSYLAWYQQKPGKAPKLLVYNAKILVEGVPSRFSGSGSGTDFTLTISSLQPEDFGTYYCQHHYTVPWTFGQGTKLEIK	10500
